The compounds listed here are annotated with their surface tension liquid-gas.
assay-conditions: 308.15 K
Express the result in mN/m but write the number alone.

{"compound": "COCCOCCOCCO [2-[2-(2-methoxyethoxy)ethoxy]ethanol]", "readout": "surface tension liquid-gas", "reported-measurement": 35.79}
{"compound": "COCCOC", "readout": "surface tension liquid-gas", "reported-measurement": 22.91}
{"compound": "O", "readout": "surface tension liquid-gas", "reported-measurement": 70.38}
{"compound": "COCCOCCO", "readout": "surface tension liquid-gas", "reported-measurement": 33.91}

API: the following record is the query input.
For reference, reported surface tension liquid-gas for COCCO stands at 30.02

###

The compounds listed here are annotated with their surface tension liquid-gas.
assay-conditions: 318.15 K
Express the result in mN/m but write the number alone.

These recorded examples may help you get a feel for the data.
{"compound": "COCCOCCO", "surface tension liquid-gas (mN/m)": 32.95}
{"compound": "COCCOC", "surface tension liquid-gas (mN/m)": 21.89}
{"compound": "COCCOCCOCCO [2-[2-(2-methoxyethoxy)ethoxy]ethanol]", "surface tension liquid-gas (mN/m)": 35.21}
{"compound": "O", "surface tension liquid-gas (mN/m)": 68.82}

API: the following record is the query input.
For reference, reported surface tension liquid-gas for COCCO stands at 29.1

###

The compounds listed here are annotated with their surface tension liquid-gas.
assay-conditions: 298.15 K
Express the result in mN/m but write the number alone.

{"compound": "COCCOCCO [2-(2-methoxyethoxy)ethanol]", "surface tension liquid-gas, mN/m": 34.73}
{"compound": "COCCO [2-methoxyethan-1-ol]", "surface tension liquid-gas, mN/m": 30.82}
{"compound": "COCCOCCOCCO [2-[2-(2-methoxyethoxy)ethoxy]ethanol]", "surface tension liquid-gas, mN/m": 36.28}

For reference, reported surface tension liquid-gas for COCCOC [1,2-dimethoxyethane] stands at 23.79

For reference, reported surface tension liquid-gas for O [water] stands at 71.99

Reference source: the NIST ThermoML archive (doi:10.1021/je030173e)
